molecular target: mouse TRPM3α2 (mTRPM3) ion channel (Mus musculus); experiment: TRPM3 ion channel driven Ca2+ uptake, Fluo-4 AM assay, mTRPM3alpha2 overexpressing flip-in HEK293 cells stimulated with pregnenolone sulfate (50 μM); conditions: mTRPM3 overexpressing HEK293 cells stimulated with pregnenolone sulfate (50 μM), activity ranges A, B, C
Sequence (J9SQF3 1-1709 isoform J9SQF3-12): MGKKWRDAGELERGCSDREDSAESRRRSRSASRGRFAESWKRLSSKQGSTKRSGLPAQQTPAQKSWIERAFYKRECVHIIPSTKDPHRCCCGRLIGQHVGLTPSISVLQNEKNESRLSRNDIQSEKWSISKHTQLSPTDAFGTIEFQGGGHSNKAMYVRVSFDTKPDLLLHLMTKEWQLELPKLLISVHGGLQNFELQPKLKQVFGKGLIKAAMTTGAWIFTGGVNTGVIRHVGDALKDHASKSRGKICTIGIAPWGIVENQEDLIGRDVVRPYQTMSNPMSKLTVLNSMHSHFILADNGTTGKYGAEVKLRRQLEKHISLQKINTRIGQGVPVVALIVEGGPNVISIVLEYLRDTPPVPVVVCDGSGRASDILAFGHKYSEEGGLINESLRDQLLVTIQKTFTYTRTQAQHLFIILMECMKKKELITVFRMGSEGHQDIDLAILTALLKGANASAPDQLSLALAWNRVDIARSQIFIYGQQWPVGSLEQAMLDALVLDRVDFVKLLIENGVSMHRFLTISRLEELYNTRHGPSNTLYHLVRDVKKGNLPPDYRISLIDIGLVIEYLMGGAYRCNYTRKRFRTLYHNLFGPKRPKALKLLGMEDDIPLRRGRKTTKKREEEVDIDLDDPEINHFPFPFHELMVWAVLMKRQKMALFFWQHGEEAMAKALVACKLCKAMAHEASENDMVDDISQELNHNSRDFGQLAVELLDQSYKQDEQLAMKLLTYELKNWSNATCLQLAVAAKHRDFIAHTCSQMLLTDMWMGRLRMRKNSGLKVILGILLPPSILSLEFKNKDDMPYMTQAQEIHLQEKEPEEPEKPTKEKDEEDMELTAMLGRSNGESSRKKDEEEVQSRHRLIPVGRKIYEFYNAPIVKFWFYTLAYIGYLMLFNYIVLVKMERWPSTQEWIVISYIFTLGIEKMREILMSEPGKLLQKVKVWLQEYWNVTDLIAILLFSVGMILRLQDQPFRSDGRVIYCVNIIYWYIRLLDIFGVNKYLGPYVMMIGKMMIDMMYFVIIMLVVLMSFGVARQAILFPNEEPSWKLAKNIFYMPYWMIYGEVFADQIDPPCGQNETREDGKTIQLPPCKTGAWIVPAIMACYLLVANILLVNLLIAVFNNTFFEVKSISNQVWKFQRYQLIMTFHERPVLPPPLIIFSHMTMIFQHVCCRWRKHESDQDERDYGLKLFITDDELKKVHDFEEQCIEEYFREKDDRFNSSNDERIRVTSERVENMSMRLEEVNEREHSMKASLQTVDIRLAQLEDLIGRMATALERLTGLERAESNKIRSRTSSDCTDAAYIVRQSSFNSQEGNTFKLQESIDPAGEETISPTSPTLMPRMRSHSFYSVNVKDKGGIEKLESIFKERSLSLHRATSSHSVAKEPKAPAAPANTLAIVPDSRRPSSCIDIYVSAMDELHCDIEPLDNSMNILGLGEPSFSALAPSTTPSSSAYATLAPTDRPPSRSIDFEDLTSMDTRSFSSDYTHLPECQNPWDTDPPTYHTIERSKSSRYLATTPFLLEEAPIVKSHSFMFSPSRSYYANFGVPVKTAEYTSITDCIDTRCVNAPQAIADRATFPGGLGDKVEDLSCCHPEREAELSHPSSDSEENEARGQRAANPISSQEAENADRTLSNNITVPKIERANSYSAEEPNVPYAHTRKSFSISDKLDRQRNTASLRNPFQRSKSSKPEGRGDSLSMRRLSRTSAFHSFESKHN
Entries annotated with measured IC50

# example entries with known answers
>>> value("Cc1ncc(COc2ccc3nn(C)c(C(=O)N[C@H](C)C(N)=O)c3c2)s1 [Cpd 117]")
"> 20 µM"
>>> value("Cn1nccc1COc1ccc2nn(C)c(C(=O)NC3(CCO)CCC3)c2c1 [Cpd 079]")
"> 20 µM"
>>> value("Cn1nc2ccc(OCc3ccccc3F)cc2c1C(=O)NC(C)(CO)C(N)=O (single isomer, unassigned) [Cpd 194 - En2]")
"< 1 µM"
>>> value("Cn1nc2ccc(OCC3CC3)cc2c1C(=O)NC1(CO)CCNC1=O (single isomer, unassigned) [Cpd 161 - En1]")
"< 1 µM"

Recorded IC50 of Cn1nc2ccc(OCc3ccccn3)cc2c1C(=O)NC1(CO)CCOCC1 [Cpd 106] , please.
1 to 20 µM

Recorded IC50 of Cn1nc2ccc(OCC3CCCC3)cc2c1C(=O)N[C@@H](CO)C(N)=O [Cpd 143] , please.
< 1 µM

Recorded IC50 of CN(C)C1(CNC(=O)c2c3cc(OCc4ccnn4C)ccc3nn2C)CCC1 [Cpd 046] , please.
1 to 20 µM

FYI, the data here is from patent US20250376461A1.
